Below, each of the molecules is paired with its reported log10 IC50 value.
test target: JAK3 (JH1 and JH2 domain) (Homo sapiens)
Sequence (P52333 521-1111 limits assumed): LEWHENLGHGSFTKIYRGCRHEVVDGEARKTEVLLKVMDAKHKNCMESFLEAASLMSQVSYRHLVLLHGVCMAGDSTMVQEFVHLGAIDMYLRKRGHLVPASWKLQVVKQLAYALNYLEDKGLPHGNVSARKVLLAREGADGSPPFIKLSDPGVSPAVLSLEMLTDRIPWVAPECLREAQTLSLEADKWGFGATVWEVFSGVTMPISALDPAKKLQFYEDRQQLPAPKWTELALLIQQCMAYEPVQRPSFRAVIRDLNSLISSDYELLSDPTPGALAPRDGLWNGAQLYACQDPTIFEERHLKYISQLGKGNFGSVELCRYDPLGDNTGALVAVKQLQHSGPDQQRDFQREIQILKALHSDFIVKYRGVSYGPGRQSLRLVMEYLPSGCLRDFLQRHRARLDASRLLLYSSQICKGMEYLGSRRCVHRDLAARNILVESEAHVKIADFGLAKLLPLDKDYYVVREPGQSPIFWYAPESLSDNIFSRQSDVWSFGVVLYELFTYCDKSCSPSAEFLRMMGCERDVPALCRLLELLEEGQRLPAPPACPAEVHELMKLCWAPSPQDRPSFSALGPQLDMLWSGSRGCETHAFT
measurement protocol: JAK3 Kinase Assay (ELISA of peptide substrate phosphorylation)
cond: purified JAK3 enzyme, 10 μM ATP, biotinylated peptide substrate, 1 hour at room temperature
attribute measured: log10 IC50 (log10 of the value in nM)

molecule | test target | log10 IC50
O=C1NC(=O)c2c1c1c3ccccc3n3c1c1c2c2ccccc2n1CC(O)(C(=O)NCc1ccncc1)C(O)C3 (stereo not shown) [Cpd 117] | JAK3 (JH1 and JH2 domain) (Homo sapiens) | 1.18
O=C1NCc2c1c1c3ccccc3n3c1c1c2c2ccccc2n1CC(O)(COC(=O)N1CCOCC1)C3 (stereo not shown) [Cpd 138] | JAK3 (JH1 and JH2 domain) (Homo sapiens) | 2.21
O=C1NCc2c1c1c3ccccc3n3c1c1c2c2ccccc2n1CC(CO)C3 (stereo not shown) [Cpd 23] | JAK3 (JH1 and JH2 domain) (Homo sapiens) | 1.34
CN(C)CCN(C)C(=O)OC1Cn2c3ccccc3c3c4c(c5c6ccccc6n(c5c32)CC1O)C(=O)NC4=O (stereo not shown) [Cpd 107] | JAK3 (JH1 and JH2 domain) (Homo sapiens) | 2.26
CN1CCN(C(=O)C2(O)Cn3c4ccccc4c4c5c(c6c7ccccc7n(c6c43)CC2O)C(=O)NC5=O)CC1 (stereo not shown) [Cpd 125] | JAK3 (JH1 and JH2 domain) (Homo sapiens) | 1.43
CN1CCC(Nc2ccc3c(c2)c2c4c(c5c6ccccc6n6c5c2n3CC(O)C(O)C6)CNC4=O)CC1 (stereo not shown) [Cpd 204] | JAK3 (JH1 and JH2 domain) (Homo sapiens) | 2.23
Cc1ccc(CNC(=O)OC2Cn3c4ccccc4c4c5c(c6c7ccccc7n(c6c43)CC2O)C(=O)NC5=O)o1 (stereo not shown) [Cpd 86] | JAK3 (JH1 and JH2 domain) (Homo sapiens) | 1.52
O=C1NCc2c1c1c3cc(Cn4ccnc4)ccc3n3c1c1c2c2ccccc2n1CC(O)C(O)C3 (stereo not shown) [Cpd 202] | JAK3 (JH1 and JH2 domain) (Homo sapiens) | 2.01
CN1CCN(C(=O)OC2Cn3c4ccccc4c4c5c(c6c7ccccc7n(c6c43)CC2O)C(=O)NC5=O)CC1 (stereo not shown) [Cpd 76] | JAK3 (JH1 and JH2 domain) (Homo sapiens) | 1.81
CC(C)(C)OC(=O)NC1CCN(C(=O)OCC2Cn3c4ccccc4c4c5c(c6c7ccccc7n(c6c43)C2)C(=O)NC5)CC1 (stereo not shown) [Cpd 172] | JAK3 (JH1 and JH2 domain) (Homo sapiens) | 2.08
O=C1NC(=O)c2c1c1c3ccccc3n3c1c1c2c2ccccc2n1CC(OC(=O)N1CCN(c2ccccn2)CC1)C(O)C3 (stereo not shown) [Cpd 112] | JAK3 (JH1 and JH2 domain) (Homo sapiens) | 3.03
O=C1NCc2c1c1c3ccccc3n3c1c1c2c2ccccc2n1Cc1c[nH]cc1C3 [Cpd 30] | JAK3 (JH1 and JH2 domain) (Homo sapiens) | 1.83
O=C1NC(=O)c2c1c1c3ccccc3n3c1c1c2c2ccccc2n1CC(OC(=O)N1CCN(C(=O)CN2CCCC2)CC1)C(O)C3 (stereo not shown) [Cpd 95] | JAK3 (JH1 and JH2 domain) (Homo sapiens) | 2.20
O=C1NCc2c1c1c3ccccc3n3c1c1c2c2ccccc2n1CCC(O)CC3 (stereo not shown) [Cpd 28] | JAK3 (JH1 and JH2 domain) (Homo sapiens) | 1.76
O=C1NCc2c1c1c3ccccc3n3c1c1c2c2ccccc2n1C[C@H](O)[C@@H](O)C3 [Cpd 18] | JAK3 (JH1 and JH2 domain) (Homo sapiens) | 1.51
O=C1NCc2c1c1c3ccccc3n3c1c1c2c2ccccc2n1CCC(O)C(O)CC3 (stereo not shown) [Cpd 21] | JAK3 (JH1 and JH2 domain) (Homo sapiens) | 1.08
O=C(NCCc1ccccn1)OC1Cn2c3ccccc3c3c4c(c5c6ccccc6n(c5c32)CC1O)C(=O)NC4=O (stereo not shown) [Cpd 82] | JAK3 (JH1 and JH2 domain) (Homo sapiens) | 2.13
O=C1NCc2c1c1c3ccccc3n3c1c1c2c2ccccc2n1CCC(OC(=O)N1CCOCC1)CC3 (stereo not shown) [Cpd 185] | JAK3 (JH1 and JH2 domain) (Homo sapiens) | 1.84
O=C(NCCCN1CCCC1=O)OC1Cn2c3ccccc3c3c4c(c5c6ccccc6n(c5c32)CC1O)C(=O)NC4=O (stereo not shown) [Cpd 79] | JAK3 (JH1 and JH2 domain) (Homo sapiens) | 1.68
Nc1ccc2c(c1)c1c3c(c4c5ccccc5n5c4c1n2CC(O)C(O)C5)CNC3=O (stereo not shown) [Cpd 192] | JAK3 (JH1 and JH2 domain) (Homo sapiens) | 0.85
CN(C)CCCN1CCN(C(=O)OC2CCn3c4ccccc4c4c5c(c6c7ccccc7n(c6c43)C2)C(=O)NC5=O)CC1 (stereo not shown) [Cpd 68] | JAK3 (JH1 and JH2 domain) (Homo sapiens) | 2.64
C=C1Cn2c3ccccc3c3c4c(c5c6ccccc6n(c5c32)C1)C(=O)NC4 [Cpd 22] | JAK3 (JH1 and JH2 domain) (Homo sapiens) | 1.86
CN1CCC(NCc2ccc3c(c2)c2c4c(c5c6ccccc6n6c5c2n3CC(O)C(O)C6)CNC4=O)CC1 (stereo not shown) [Cpd 195] | JAK3 (JH1 and JH2 domain) (Homo sapiens) | 2.45
CN1CCN(Cc2ccc3c(c2)c2c4c(c5c6ccccc6n6c5c2n3CC(O)C(O)C6)CNC4=O)CC1 (stereo not shown) [Cpd 193] | JAK3 (JH1 and JH2 domain) (Homo sapiens) | 2.13
O=C1NCc2c1c1c3ccccc3n3c1c1c2c2ccccc2n1CC(O)(COC(=O)N1CCc2ccccc2C1)C3 (stereo not shown) [Cpd 147] | JAK3 (JH1 and JH2 domain) (Homo sapiens) | 1.45
O=C1NCc2c1c1c3ccccc3n3c1c1c2c2ccccc2n1CCOCC3 [Cpd 29] | JAK3 (JH1 and JH2 domain) (Homo sapiens) | 1.15
CN1CCC(N(C)C(=O)OC2Cn3c4ccccc4c4c5c(c6c7ccccc7n(c6c43)CC2O)C(=O)NC5=O)C1 (stereo not shown) [Cpd 108] | JAK3 (JH1 and JH2 domain) (Homo sapiens) | 1.66
O=C1NC(=O)c2c1c1c3ccccc3n3c1c1c2c2ccccc2n1CC(OC(=O)N1CCN(c2ccc(O)cc2)CC1)CC3 (stereo not shown) [Cpd 58] | JAK3 (JH1 and JH2 domain) (Homo sapiens) | 1.99
O=C1NCc2c1c1c3ccccc3n3c1c1c2c2ccccc2n1CC(O)C(O)C3 (stereo not shown) [Cpd 14] | JAK3 (JH1 and JH2 domain) (Homo sapiens) | 0.85
